assay details: from Draber, W.; Büchel, H.; Dickore, K.; Trebst, A.; Pistorius, E. (1969). Structure-activity correlation of 1,2,4-triazinones, a new group of photosynthesis inhibitors. In: Progress in Photosynthesis …
assay conditions: pH 7.0
Consider the following compounds and their measured logD readings.

- compound: "CC(C)c1nnc(N2CCOCC2)n(N)c1=O"
  logD: 0.49
- compound: "CCCCNc1nnc(C(C)C)c(=O)n1N"
  logD: 1.78
- compound: "CSc1nnc(CCC(C)C)c(=O)n1N"
  logD: 1.85
- compound: "CC(C)c1nnc(SCC(=O)c2ccccc2)n(N)c1=O"
  logD: 2.07
- compound: "CSc1nncc(=O)n1N"
  logD: 0.38
- compound: "CCc1nnc(SC)n(N)c1=O"
  logD: 0.46
- compound: "CSc1nnc(C2CCCCO2)c(=O)n1N (stereo not given)"
  logD: 0.38
- compound: "CNc1nnc(C(C)C)c(=O)n1N"
  logD: 0.3
- compound: "CSc1nnc(-c2ccccc2)c(=O)n1N"
  logD: 1.66
- compound: "CCSc1nnc(C(C)C)c(=O)n1N"
  logD: 1.52
- compound: "COc1nnc(C(C)C)c(=O)n1N"
  logD: -0.06
- compound: "CCCSc1nnc(C(C)C)c(=O)n1N"
  logD: 2.12
- compound: "CC(C)Sc1nnc(C(C)C)c(=O)n1N"
  logD: 2.06
- compound: "CCCCCCc1nnc(SC)n(N)c1=O"
  logD: 2.68
- compound: "CSc1nnc(C(C)(C)C)c(=O)n1N"
  logD: 1.7
